assay: Clinical pharmacological trial: pharmacokinetics after single-dose edoxaban 15 mg in individuals with renal functional impairment; conditions: human, in vivo, 15 mg, AUC0-24h Geometric least squares mean, single-dose 15 mg; healthy adult (CLCR > 80 mL/min)
property_label: AUC(0-t) (ng·h/mL)
Give bare numbers, in ng·h/mL.

Ask | # get_value(readout='AUC(0-t)', item= `CN1CCc2nc(C(=O)N[C@@H]3C[C@@H](C(=O)N(C)C)CC[C@@H]3NC(=O)C(=O)Nc3ccc(Cl)cn3)sc2C1` )
Reply | 440

---

experiment: Clinical pharmacological trial: pharmacokinetics after single-dose edoxaban 15 mg in individuals with renal functional impairment; conditions: human, in vivo, 15 mg, tmax Least squares mean, single-dose 15 mg; peritoneal dialysis patient
property_label: Tmax (h)
Numbers only, in h.

Ask | # get_value(readout='Tmax', item= `CN1CCc2nc(C(=O)N[C@@H]3C[C@@H](C(=O)N(C)C)CC[C@@H]3NC(=O)C(=O)Nc3ccc(Cl)cn3)sc2C1` )
Reply | 2.37
